Please respond with reported pKi for every item in the list.
- measurementTarget: Peroxisome proliferator-activated receptor gamma (Homo sapiens)
- Sequence (P37231 whole entry): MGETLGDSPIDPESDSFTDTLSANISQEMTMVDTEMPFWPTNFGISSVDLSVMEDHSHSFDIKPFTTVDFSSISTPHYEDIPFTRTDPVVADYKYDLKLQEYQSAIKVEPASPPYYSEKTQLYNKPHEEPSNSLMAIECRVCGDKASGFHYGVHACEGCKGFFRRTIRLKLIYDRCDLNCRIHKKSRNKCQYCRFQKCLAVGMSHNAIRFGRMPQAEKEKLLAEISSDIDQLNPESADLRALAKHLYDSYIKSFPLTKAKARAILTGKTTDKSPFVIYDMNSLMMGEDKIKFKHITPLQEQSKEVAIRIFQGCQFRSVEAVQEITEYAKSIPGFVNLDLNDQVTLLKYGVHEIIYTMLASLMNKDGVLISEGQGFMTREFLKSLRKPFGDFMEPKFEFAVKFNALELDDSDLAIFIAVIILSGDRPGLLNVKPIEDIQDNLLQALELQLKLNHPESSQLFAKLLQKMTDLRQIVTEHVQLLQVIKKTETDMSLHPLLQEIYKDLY
Numbers only, as −log10 of the molar value.

Some entries whose results are on file:
compound	pKi
COC(=O)C(Cc1ccc(OCCN2CCC(C)(C)c3cc(C(=O)c4ccccc4)ccc32)cc1)C(=O)OC	5.00
CCO[C@@H](Cc1ccc(OCCc2ccc(OS(C)(=O)=O)cc2)cc1)C(=O)O	7.74
COC(=O)C(Cc1ccc(OCCN2CCC(C)(C)c3cc(/C(=N\O)c4ccccc4)ccc32)cc1)C(=O)OC	5.00

// switching to the query compound
Data request: Query for Peroxisome proliferator-activated receptor gamma (Homo sapiens): what pKi does the record show for CCOC(=O)C(Cc1ccc(OCCN2CCC(C)(C)c3cc(/C(=N\O)c4ccccc4)ccc32)cc1)OCC (centres undefined) ?
Data returned: 6.21
